For each record, write down the corresponding kon.
# Tested system: T1, cynomolgus monkey CD3 E&D complex protein (Sino Biological Inc., CT032-00323H) (cynomolgus monkey, UniProt Q95LI5 22-117; Q95LI8 22-105)
# T1 construct: bought heterodimer
# T1 sequence (Q95LI5 22-117, chain 1 of 2): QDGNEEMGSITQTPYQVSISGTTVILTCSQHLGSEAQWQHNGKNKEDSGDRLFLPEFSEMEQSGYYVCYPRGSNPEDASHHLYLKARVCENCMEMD
# T1 sequence (Q95LI8 22-105, chain 2 of 2): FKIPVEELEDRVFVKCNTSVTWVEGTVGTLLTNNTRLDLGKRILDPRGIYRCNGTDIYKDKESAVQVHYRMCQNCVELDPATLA
# Protocol text: BLI, antibody on sensor
Please give a number only; it is taken to be in M⁻¹ s⁻¹.

Bench note: what kon did hzsp34.19 (antibody, human IgG1, lambda, L234A L235A, V domains shown, IgG1 L234A L235A, lambda) VH: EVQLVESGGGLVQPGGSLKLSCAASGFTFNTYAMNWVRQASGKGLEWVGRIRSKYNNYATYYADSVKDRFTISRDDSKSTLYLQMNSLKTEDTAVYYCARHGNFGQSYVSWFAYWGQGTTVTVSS VL: QAVVTQEPSLTVSPGGTVTLTCRSSTGAVTTSNYANWVQQKPGQAPRGLIGGTNKRAPGVPARFSGSLLGGKAALTLLGAQPEDEAEYYCALWYSNLWVFGQGTKLTVLG show?
1.64e+06

# lookup: kon of hzsp34.43 (antibody, human IgG1, kappa, L234A L235A, V domains shown, IgG1 L234A L235A, kappa) VH: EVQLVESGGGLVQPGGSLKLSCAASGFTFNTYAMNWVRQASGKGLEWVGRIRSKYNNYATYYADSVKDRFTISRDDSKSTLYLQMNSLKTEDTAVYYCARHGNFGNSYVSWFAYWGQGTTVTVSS VL: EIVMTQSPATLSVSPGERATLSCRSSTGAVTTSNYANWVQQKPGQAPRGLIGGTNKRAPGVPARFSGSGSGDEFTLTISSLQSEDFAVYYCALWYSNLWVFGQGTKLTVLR
253000

Report kon for hzsp34.39 (antibody, human IgG1, kappa, L234A L235A, V domains shown, IgG1 L234A L235A, kappa) VH: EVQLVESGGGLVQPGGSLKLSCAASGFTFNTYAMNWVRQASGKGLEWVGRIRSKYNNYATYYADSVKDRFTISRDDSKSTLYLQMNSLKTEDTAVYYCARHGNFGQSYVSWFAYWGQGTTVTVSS VL: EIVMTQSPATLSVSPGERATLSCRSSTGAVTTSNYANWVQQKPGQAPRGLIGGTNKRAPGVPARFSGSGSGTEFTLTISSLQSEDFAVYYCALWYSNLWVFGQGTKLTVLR please.
286000
